- experimentalDetails: Plasma concentration in mice after 1 hour of ip administration
- Assay type: ADME, organism-based
- assayContext: mouse
readoutKind: concentration at 1 h (µM)
Field: numeric (µM). Do not append units.

Q) Name the recorded concentration at 1 h for O=C(Nc1ccc(-c2nc3ccccc3[nH]2)cc1)Nc1ccc(-c2nc3ccccc3[nH]2)cc1 .
A) 31

----------
- experimentalDetails: Plasma concentration in mice after 4 hours of ip administration
- Format: ADME, organism-based
- assayContext: mouse
readoutKind: concentration at 4 h (µM)
Field: numeric (µM). Do not append units.

Q) Name the recorded concentration at 4 h for O=C(Nc1ccc(-c2nc3ccccc3[nH]2)cc1)Nc1ccc(-c2nc3ccccc3[nH]2)cc1 .
A) 23
